- System: Hs-578T
- protocol description: NCI tumour cell line growth inhibition, 48 h
Active and inactive are the calls of the source. Cut-off read from the data, not from the text of the source: active = GI50 up to about 1.1 µM and inactive = higher. Bridge positions count the residues as written; N and C are the ends. Square brackets hold non-standard residues; d marks the D form. Peptide text beside a SMILES is read from it. * marks the point of attachment. Cya = N[CH](CS(=O)(=O)O)C(=O)O; X49 = CC(C)CCCCCCCC(O)CC(=O)*; GABA = NCCCC(=O)O
Reported GI50 values are given for each entry in this list.
recorded metric: GI50

molecule	recorded metric	measurement
CC1=NN(c2cc(Cl)c(S(=O)(=O)O)cc2Cl)C2(C1)C(Cl)C(=O)N2c1nc2ccccc2s1 (stereo not given)	GI50	> 100 µM (inactive)
CC(=O)C1=C(O)/C(=C\c2ccco2)OC1=O	GI50	> 10 µM (inactive)
CCC(=O)Nc1ncnc2ncn(C(=O)CC)c12	GI50	> 100 µM (inactive)
COc1ccc(C(O)(c2ccccc2)c2nccc3ccccc23)cc1 (stereo not given)	GI50	4.71 µM (inactive)
O=[N+]([O-])C(=C/C1CCCCC1)/C(=C\C1CCCCC1)[N+](=O)[O-]	GI50	2.84 µM (inactive)
O=C(/C=C/c1ccc(Cl)cc1)c1ccc(Cl)s1	GI50	40.5 µM (inactive)
COc1cc(O)c2c(c1)OCC(Cc1ccc(O)cc1)C2=O (stereo not given)	GI50	45.7 µM (inactive)
O=[N+]([O-])c1cccc(/C=N/N=c2\ccc3ccccc3[nH]2)c1O	GI50	16.2 µM (inactive)
CC1(C)CCCCCCCCCC2CC2CCC(C)(C)C1=O (stereo not given)	GI50	31.3 µM (inactive)
CC(C)CCCCCCCC(O)CC(=O)NC(CS(=O)(=O)O)C(=O)NC(CC(C)C)C(=O)NCCCC(=O)NC(Cc1c[nH]cn1)C(=O)NC(C)C(=O)NC1C(=O)NC(C(C)O)C(=O)NC(Cc2c[nH]cn2)C(=O)NC(C)C(=O)NC(C(C)O)C(=O)OC1C (stereo not given) (X49-[Cya]L[GABA]HATTHAT; ester 6-C; configuration not given here)	GI50	> 25 µM (inactive)
OCC1CCC(n2cnc3c(O)ncnc32)O1 (stereo not given)	GI50	> 1000 µM (inactive)
CC(C)C1CCC(=O)CC1CCCCC1CC(=O)CC1O[Si](C)(C)C(C)(C)C (stereo not given)	GI50	3.03 µM (inactive)
N#CCCN(CCC#N)c1ccc(/C=C2\N=C(c3ccccc3)N(NC(N)=S)C2=O)cc1	GI50	> 100 µM (inactive)
COC(=O)c1cc(CC2Cc3cc4c(cc3C2)CCC4)cc2c1CCC2	GI50	> 100 µM (inactive)
COc1cc2c[n+]3c4c(c2c(OC)c1OC)CCCC4CC3 (stereo not given)	GI50	9.2 µM (inactive)
O=C(O)CNc1ccc(C(=O)O)cc1	GI50	> 100 µM (inactive)
NC(=O)Nc1ccc(C(=O)NCCCNC(=O)c2ccc(NC(N)=O)cc2)cc1	GI50	> 100 µM (inactive)
CC1(C)OCC([C@H]2O[C@@H](CC(=S)NCCCCCCCCCCCCNC(=S)C[C@H]3O[C@@H](C4COC(C)(C)O4)[C@H]4OC(C)(C)O[C@H]43)[C@H]3OC(C)(C)O[C@H]32)O1 (stereo not given in full)	GI50	> 100 µM (inactive)
CC(C)=Cc1cc2c(cc1O)CCC1C2CC[C@@]2(C)C1CC[C@@H]2O (stereo not given in full)	GI50	18.5 µM (inactive)
CCOC(=O)Cn1c(=O)c2nc(SC)sc2n(-c2ccc(C)cc2)c1=S	GI50	19.2 µM (inactive)
Cn1cnc(N2CCCC2)c(C#N)c1=O	GI50	> 100 µM (inactive)
CC(C)=CCC/C(C)=C/Cc1cc(/C=C/c2cc(O)c(CC=C(C)C)c(O)c2)cc(O)c1O	GI50	10.8 µM (inactive)
Cc1cc(OCc2nc(N)nc(N)c2-c2ccc(Cl)c(Cl)c2)ccc1[N+](=O)[O-]	GI50	12.2 µM (inactive)
COC(=O)C1=NN2c3ccccc3CN([C@@H](C)c3ccccc3)C(=O)[C@@H]2C1	GI50	41.1 µM (inactive)
CN1C(=O)N(C)C(O)C(Cl)(Br)C1=O (stereo not given)	GI50	> 100 µM (inactive)
CC(C)(C)c1cc(C(C)(C)C)c2sc(=O)oc2c1O	GI50	16.4 µM (inactive)
C[N+]1(C)CC=C(N2CCOCC2)CC1	GI50	> 10 µM (inactive)
COc1cc2c(cc1O)[C@@H]1Cc3c(cc(OC)c(OC)c3Oc3cc4c(cc3OC)CCN(C)[C@@H]4Cc3ccc(O)cc3)[C@H](C2)N1C	GI50	46 µM (inactive)
COc1ccc(-n2c(N)c(C#N)c(C#N)c2-c2ccco2)cc1	GI50	39.7 µM (inactive)
Cc1cc(=O)oc2cc(OCc3c(F)cccc3Cl)ccc12	GI50	21.9 µM (inactive)
c1ccc(C(C2=Nc3cccc4cccc(c34)N2)c2ccccc2)cc1	GI50	27 µM (inactive)
CC12CCC(C/C1=N\NC(N)=O)C2(C)C (stereo not given)	GI50	> 100 µM (inactive)
O=C1CCCC2=C1CC1=C(CCCC1=O)N2c1ccc(-c2ccccc2)cc1	GI50	43.2 µM (inactive)
O=c1[nH]/c(=C/c2ccc(OCc3ccccc3)cn2)c(=O)[nH]/c1=C/c1ccc([N+](=O)[O-])cc1	GI50	35.8 µM (inactive)
CC(=N\N)/C(C)=N/N=C(C)/C(C)=N/N=C(C)/C(C)=N/N	GI50	> 100 µM (inactive)
Cc1nc(O)nc(N(CCO)/N=C/c2ccc(Cl)cc2)c1C(=O)Nc1ccc(Cl)cc1	GI50	32.5 µM (inactive)
CC(=O)c1sc2c(c1OC(=O)c1ccccc1)c(=O)n(-c1ccccc1)c(=S)n2-c1ccccc1	GI50	3.74 µM (inactive)
CSc1ccc(NC(=O)C2CCCCC2C(=O)O)cc1 (stereo not given)	GI50	> 100 µM (inactive)
CC1(C)CC(=O)C(Cc2ccccc2)(Cc2ccccc2)C(=O)C1	GI50	29.2 µM (inactive)
CCN1/C(=C/C#C/C(C)=C\c2sc3ccc(Cl)cc3[n+]2CC)Sc2ccc(Cl)cc21	GI50	4.72 µM (inactive)
